system: UniProt:P21462
Sequence (P21462 whole entry): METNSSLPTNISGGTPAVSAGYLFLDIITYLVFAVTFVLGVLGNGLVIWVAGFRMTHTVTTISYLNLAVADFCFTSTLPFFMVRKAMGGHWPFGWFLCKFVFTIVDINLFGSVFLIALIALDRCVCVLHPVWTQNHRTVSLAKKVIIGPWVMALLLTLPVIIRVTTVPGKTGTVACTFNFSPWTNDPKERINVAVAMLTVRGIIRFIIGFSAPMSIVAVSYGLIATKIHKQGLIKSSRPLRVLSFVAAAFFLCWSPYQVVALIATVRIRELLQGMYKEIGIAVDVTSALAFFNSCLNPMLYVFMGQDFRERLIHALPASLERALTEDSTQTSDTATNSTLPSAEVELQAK
measurement.description: Antagonist activity against human FPR1 expressed in human HL-60 cells assessed as inhibition of fMLF-induced calcium mobilization preincubated for 30 mins followed by fMLF addition and measured every 5s for 240s by Fluo4AM dye based scanning fluorimetric analysis
Format: functional, cell-based
result.type: pIC50
In textbook form, pIC50 equals minus log to base ten of the concentration in mol/L.

Inquiry: Identify measured pIC50 associated with COc1ccccc1-c1c(C)oc2cc(OC(=O)c3ccco3)ccc2c1=O
Reply text: 5.72

Inquiry: Identify measured pIC50 associated with COc1ccccc1-c1c(C(F)(F)F)oc2cc(OC(=O)c3ccco3)ccc2c1=O
Reply text: 6.36

Inquiry: Identify measured pIC50 associated with CCc1cc2c(=O)c(-c3nc4ccccc4n3C)c(C)oc2cc1OC(C)=O
Reply text: 5.85

Inquiry: Identify measured pIC50 associated with Cc1oc2cc(OC(=O)c3ccco3)ccc2c(=O)c1-c1nc2ccccc2n1C
Reply text: 5.51

Inquiry: Identify measured pIC50 associated with CCCCCCc1cc2c(=O)c(-c3nc4ccccc4n3C)c(C)oc2cc1OC(C)=O
Reply text: 6.51

---

measurement.description: Metabolic stability of the compound in rat liver microsomes assessed as parent compound remaining at 10 uM preincubated for 10 mins followed by NADPH addition and measured after 30 mins by LC-MS analysis
Format: ADME, Microsome
assay.conditions: time 40 min, read-out: Stability
result.type: remaining at 0.5 h, 10 µM (%)
Supply the numeric figure in %, leaving out any unit text.

Inquiry: Identify measured remaining at 0.5 h, 10 µM associated with CCCCCCC(=O)Oc1cc2oc(C)c(-c3ccccc3OC)c(=O)c2cc1C
Reply text: 0

Inquiry: Identify measured remaining at 0.5 h, 10 µM associated with CCCCCCc1cc2c(=O)c(-c3ccccc3OC)c(C)oc2cc1OC(C)=O
Reply text: 0

Inquiry: Identify measured remaining at 0.5 h, 10 µM associated with CCCCCCc1cc2c(=O)c(-c3ccccc3OC)c(C(F)(F)F)oc2cc1OC(C)=O
Reply text: 0
